Listed here: items and their measured herbicidal effect rating ORYSAT.
Test system: Oryza sativa, (L.) Tebonnet
ASSAY NAME: Rice tolerance to post-transplant applications under flooded paddy conditions (Example 187), ORYSAT (Rice, Tebonnet); note: meaning of each grade not given here
MEASUREMENT CONTEXT: Rate 0.2500 kg/ha, rated three to four weeks after treatment
Give a plain numeric answer without units written out.

Field: example entries. Status: answers known.
>  <MOLECULE>
Cn1c(C(F)(F)F)cc(=O)n(-c2ccc3snc(COCc4cccc([N+](=O)[O-])c4)c3c2)c1=O

>  <herbicidal effect rating ORYSAT>
3.0

$$$$
>  <MOLECULE>
COCCOCCOC(=O)c1nsc2ccc(-n3c(=O)cc(C(F)(F)F)n(C)c3=O)cc12

>  <herbicidal effect rating ORYSAT>
5.0

$$$$
>  <MOLECULE>
CC(C)S(=O)(=O)NC(=O)c1nsc2ccc(-n3c(=O)cc(C(F)(F)F)n(C)c3=O)cc12

>  <herbicidal effect rating ORYSAT>
6.0

$$$$
>  <MOLECULE>
CCCCS(=O)(=O)NC(=O)COc1ccc(C)cc1-c1nsc2ccc(-n3c(=O)cc(C(F)(F)F)n(C)c3=O)cc12

>  <herbicidal effect rating ORYSAT>
1.0

$$$$
>  <MOLECULE>
Cn1c(C(F)(F)F)cc(=O)n(-c2ccc3snc(C(=O)O)c3c2)c1=O

>  <herbicidal effect rating ORYSAT>
2.0

$$$$
>  <MOLECULE>
COc1cccc(-c2nsc3ccc(-n4c(=O)cc(C(F)(F)F)n(C)c4=O)cc23)c1

>  <herbicidal effect rating ORYSAT>
3.5

$$$$
>  <MOLECULE>
Cc1ccc(C=C(C#N)c2nsc3ccc(-n4c(=O)cc(C(F)(F)F)n(C)c4=O)cc23)cc1

>  <herbicidal effect rating ORYSAT>
0.0

$$$$
>  <MOLECULE>
Cn1c(C(F)(F)F)cc(=O)n(-c2ccc3snc(C(C#N)=Cc4ccc(O)cc4)c3c2)c1=O

>  <herbicidal effect rating ORYSAT>
4.0

$$$$

As a next step, examine the molecule that follows.
[Q] Look up and report measured herbicidal effect rating ORYSAT (Oryza sativa, (L.) Tebonnet) for the following molecule: CCSCCOC(=O)c1nsc2ccc(-n3c(=O)cc(C(F)(F)F)n(C)c3=O)cc12
[A] 7.0

---

Test system: Oryza sativa, (L.) Tebonnet
ASSAY NAME: Rice tolerance to post-transplant applications under flooded paddy conditions (Example 187), ORYSAT (Rice, Tebonnet); note: meaning of each grade not given here
MEASUREMENT CONTEXT: Rate 0.0320 kg/ha, rated three to four weeks after treatment
REPORTED ENDPOINT: herbicidal effect rating ORYSAT

Field: example entries. Status: answers known.
>  <COMPOUND>
CSc1ccc(C)cc1-c1nsc2ccc(-n3c(=O)cc(C(F)(F)F)n(C)c3=O)cc12

>  <ASSAY RESULT>
0.0

$$$$
>  <COMPOUND>
CCOCN(C(=O)c1nsc2ccc(-n3c(=O)cc(C(F)(F)F)n(C)c3=O)cc12)S(C)(=O)=O

>  <ASSAY RESULT>
3.0

$$$$
>  <COMPOUND>
Cc1ccc(OCC(=O)N(C)O)c(-c2nsc3ccc(-n4c(=O)cc(C(F)(F)F)n(C)c4=O)cc23)c1

>  <ASSAY RESULT>
2.5

$$$$
>  <COMPOUND>
CNC(=O)OCc1nsc2ccc(-n3c(=O)cc(C(F)(F)F)n(C)c3=O)cc12

>  <ASSAY RESULT>
4.0

$$$$
>  <COMPOUND>
COC(=O)C(C)Oc1cccc(-c2nsc3ccc(-n4c(=O)cc(C(F)(F)F)n(C)c4=O)cc23)c1 (stereo not drawn)

>  <ASSAY RESULT>
2.7

$$$$

[Q] Report herbicidal effect rating ORYSAT for CN(C(=O)c1nsc2ccc(-n3c(=O)cc(C(F)(F)F)n(C)c3=O)cc12)c1ccc(Cl)cc1
[A] 3.0

[Q] Report herbicidal effect rating ORYSAT for CCCCCCCCCCCCS(=O)(=O)NC(=O)c1nsc2ccc(-n3c(=O)cc(C(F)(F)F)n(C)c3=O)cc12
[A] 2.0

[Q] Report herbicidal effect rating ORYSAT for COC(=O)c1nsc2ccc(-n3c(=O)cc(C(F)(F)F)n(C)c3=O)cc12
[A] 5.0

[Q] Report herbicidal effect rating ORYSAT for CCC(=O)COC(=O)COc1ccc(C)cc1-c1nsc2ccc(-n3c(=O)cc(C(F)(F)F)n(C)c3=O)cc12
[A] 4.0

---

Test system: Sagittaria pygmaea, L.
ASSAY NAME: Preemergence weed control under flooded paddy conditions, SAGPY (Arrowhead (Pygmaea)); note: meaning of each grade not given here
Type: in vivo
MEASUREMENT CONTEXT: Rate 0.2500 kg/ha; preemergence weeds, flooded paddy; rated three to four weeks after treatment
hey, just use yes if measured herbicidal effect rating, SAGPY is less than 6, otherwise no

Please review the entries below; each comes with its answer.
>  <MOLECULE>
Cn1c(C(F)(F)F)cc(=O)n(-c2ccc3snc(CNS(C)(=O)=O)c3c2)c1=O [Example 305]

>  <CLASSIFICATION>
yes

$$$$
>  <MOLECULE>
CC(Br)c1nsc2ccc(-n3c(=O)cc(C(F)(F)F)n(C)c3=O)cc12 (stereo not drawn) [Example 339]

>  <CLASSIFICATION>
no

$$$$
>  <MOLECULE>
Cn1c(C(F)(F)F)cc(=O)n(-c2ccc3snc(C(=O)O)c3c2)c1=O [Example 315]

>  <CLASSIFICATION>
yes

$$$$
>  <MOLECULE>
Cn1c(C(F)(F)F)cc(=O)n(-c2ccc3snc(-c4ccccc4OCC(=O)O)c3c2)c1=O [Example 312]

>  <CLASSIFICATION>
no

$$$$
>  <MOLECULE>
Cn1c(C(F)(F)F)cc(=O)n(-c2ccc3snc(C(C)(Br)Br)c3c2)c1=O [Example 340]

>  <CLASSIFICATION>
no

$$$$

# input for lookup
[Q] Is herbicidal effect rating, SAGPY of COC(=O)C(C)Oc1ccc(OC)cc1-c1nsc2ccc(-n3c(=O)cc(C(F)(F)F)n(C)c3=O)cc12 (stereo not drawn) [Example 348] strictly below 6?
[A] no

---

Listed here: items and their measured herbicidal effect rating, MOOVA.
System: Monochoria vaginalis, Presl.
ASSAY NAME: Preemergence weed control under flooded paddy conditions, MOOVA (Monochoria); note: meaning of each grade not given here
Assay type: in vivo
MEASUREMENT CONTEXT: Rate 0.1250 kg/ha; preemergence, flooded paddy; rated three to four weeks after treatment
Give a plain numeric answer without units written out.

>  <MOLECULE>
CC(=O)NCCOC(=O)c1nsc2ccc(-n3c(=O)cc(C(F)(F)F)n(C)c3=O)cc12

>  <herbicidal effect rating, MOOVA>
9.0

$$$$

[Q] Look up and report measured herbicidal effect rating, MOOVA (Monochoria vaginalis, Presl.) for the following molecule: Cn1c(C(F)(F)F)cc(=O)n(-c2ccc3snc(C(=O)NS(=O)(=O)c4ccc(Cl)cc4)c3c2)c1=O
[A] 9.0

[Q] Look up and report measured herbicidal effect rating, MOOVA (Monochoria vaginalis, Presl.) for the following molecule: CC/C(C=O)=C\c1nsc2ccc(-n3c(=O)cc(C(F)(F)F)n(C)c3=O)cc12
[A] 9.0

[Q] Look up and report measured herbicidal effect rating, MOOVA (Monochoria vaginalis, Presl.) for the following molecule: C=CS(=O)(=O)NC(=O)C(C)Oc1ccc(C)cc1-c1nsc2ccc(-n3c(=O)cc(C(F)(F)F)n(C)c3=O)cc12 (centres unmarked)
[A] 0.0

[Q] Look up and report measured herbicidal effect rating, MOOVA (Monochoria vaginalis, Presl.) for the following molecule: COCCOCCOC(=O)c1nsc2ccc(-n3c(=O)cc(C(F)(F)F)n(C)c3=O)cc12
[A] 9.0

[Q] Look up and report measured herbicidal effect rating, MOOVA (Monochoria vaginalis, Presl.) for the following molecule: CN(C(=O)c1nsc2ccc(-n3c(=O)cc(C(F)(F)F)n(C)c3=O)cc12)c1ccc(Cl)cc1
[A] 9.0

[Q] Look up and report measured herbicidal effect rating, MOOVA (Monochoria vaginalis, Presl.) for the following molecule: C=CCC(c1nsc2ccc(-n3c(=O)cc(C(F)(F)F)n(C)c3=O)cc12)S(C)(=O)=O (centres unmarked)
[A] 8.0

[Q] Look up and report measured herbicidal effect rating, MOOVA (Monochoria vaginalis, Presl.) for the following molecule: C=C(Cl)COC(=O)c1nsc2ccc(-n3c(=O)cc(C(F)(F)F)n(C)c3=O)cc12
[A] 9.0

---

Listed here: items and their measured herbicidal effect rating, CYPIR.
Test system: Cyperus iria
ASSAY NAME: Preemergence weed control under flooded paddy conditions, CYPIR (Rice Flatsedge); note: meaning of each grade not given here
Format: in vivo
MEASUREMENT CONTEXT: Rate 0.2500 kg/ha; preemergence, flooded paddy; rated three to four weeks after treatment
Give a plain numeric answer without units written out.

Field: example entries. Status: answers known.
>  <STRUCTURE STRING>
CN(C(=O)c1nsc2ccc(-n3c(=O)cc(C(F)(F)F)n(C)c3=O)cc12)c1ccc(Cl)cc1

>  <herbicidal effect rating, CYPIR>
9.0

$$$$
>  <STRUCTURE STRING>
Cn1c(C(F)(F)F)cc(=O)n(-c2ccc3snc(COCc4ccc([N+](=O)[O-])cc4)c3c2)c1=O

>  <herbicidal effect rating, CYPIR>
4.0

$$$$

[Q] Report herbicidal effect rating, CYPIR for Cc1cccc(COCc2nsc3ccc(-n4c(=O)cc(C(F)(F)F)n(C)c4=O)cc23)c1
[A] 9.0
